Reference source: patent US11980609B2

- Assay target: human LPAR1 (Homo sapiens)
- Construct: host or cells: CHO-K1
- Sequence (Q92633 whole entry): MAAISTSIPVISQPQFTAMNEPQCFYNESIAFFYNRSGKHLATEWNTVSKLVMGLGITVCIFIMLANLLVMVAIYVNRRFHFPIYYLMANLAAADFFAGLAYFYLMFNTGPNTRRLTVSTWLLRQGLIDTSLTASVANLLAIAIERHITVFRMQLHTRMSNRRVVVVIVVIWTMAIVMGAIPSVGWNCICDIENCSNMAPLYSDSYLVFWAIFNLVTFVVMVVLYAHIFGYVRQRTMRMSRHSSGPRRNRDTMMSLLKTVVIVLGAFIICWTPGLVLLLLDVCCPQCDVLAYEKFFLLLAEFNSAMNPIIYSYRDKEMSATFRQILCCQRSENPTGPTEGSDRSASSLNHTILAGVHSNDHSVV
- Test name: LPAR1 intracellular calcium mobilization assay (antagonist mode)
- Format: cell-based
- Experimental conditions: CHO-K1 EDG2 cells expressing human LPAR1; 60 min pre-incubation with compound (0.5 nM to 10 μM), then LPA 18:2 challenge; FLIPR Tetra calcium signal
Assay readout: EC50 (nM)
Write the number in nM without appending the unit.

So the reported EC50 for C[C@@H](OC(=O)Nc1c(-c2ncc(NC(=O)C3(C#N)CC3)cn2)cnn1C)c1cc(F)cnc1F , on human LPAR1 (Homo sapiens), turned out to be 81.5

The reported human LPAR1 (Homo sapiens) EC50 of C[C@@H](OC(=O)Nc1c(-c2ncc(NC(=O)C3(C)CC(F)(F)C3)cn2)cnn1C)c1cccnc1F is 20.7

The molecule C[C@@H](OC(=O)Nc1c(-c2ncc(NC(=O)C34CC(F)(C3)C4)cn2)cnn1C)c1cc(F)cnc1F , tested on human LPAR1 (Homo sapiens), showed EC50 of 36.2

Considering C[C@@H](OC(=O)Nc1c(-c2ncc(NC(=O)[C@@H]3C[C@H]3C(F)F)cn2)cnn1C)c1cc(F)cnc1F , its EC50 with human LPAR1 (Homo sapiens) was recorded as 11.6

# C[C@@H](OC(=O)Nc1c(-c2ncc(NC(=O)C3(C(F)F)CC3)cn2)cnn1C)c1cc(F)cnc1F with human LPAR1 (Homo sapiens): EC50 is 216

Record C[C@@H](OC(=O)Nc1c(-c2ncc(OS(C)(=O)=O)cc2F)cnn1C)c1cccnc1Cl has human LPAR1 (Homo sapiens) EC50 equal to 31.1

Reported EC50 (human LPAR1 (Homo sapiens)) for entry C[C@@H](OC(=O)Nc1c(-c2ncc(NC(=O)C3(C#N)CC3)cn2)cnn1C)c1cccnc1F is 54.9

human LPAR1 (Homo sapiens) data for C[C@@H](OC(=O)Nc1c(-c2ncc(OS(=O)(=O)C3CC3)cn2)cnn1C)c1cccnc1F ; its EC50: 1410

Value sought: EC50, system human LPAR1 (Homo sapiens), item C[C@@H](OC(=O)Nc1c(-c2ncc(NC(=O)C34CC(C(F)F)(C3)C4)cn2)cnn1C)c1cc(F)cnc1F . Result: 23.7

Readout EC50 for Cc1nc(-c2cnn(C)c2NC(=O)O[C@H](C)c2cccnc2Cl)ncc1OS(C)(=O)=O , test system human LPAR1 (Homo sapiens), was 39.6

Response field EC50 (human LPAR1 (Homo sapiens)) for item C[C@@H](OC(=O)Nc1c(-c2ccc(C(=O)NC34CC(C#N)(C3)C4)cn2)cnn1C)c1cccc(F)c1 : 1860

Form field, EC50 with human LPAR1 (Homo sapiens), item C[C@@H](OC(=O)Nc1c(-c2ncc(C(=O)NC34CC(F)(C3)C4)cn2)cnn1C)c1cc(F)cnc1F : 799

// assay human LPAR1 (Homo sapiens), entry COC(=O)Nc1ccc(-c2cnn(C)c2NC(=O)O[C@H](C)c2cccc(F)c2)nc1C , EC50 value = 4180
